Recorded Relieving rate of anxiety, one value per entry.
- Test system: Wistar rats
- EXPERIMENTAL_PROTOCOL: Anticonflict test (water drinking behavior under electroshock)
- Format: in vivo
- SETUP_CONDITIONS: dose 1.0 mg/kg, oral, one hour before experiment, male Wistar rats

COMPOUND | Relieving rate of anxiety [%]
O=C1CC2(CCCC2)CC(=O)N1CCCCN1CCN(c2ncccn2)CC1 | 2
CN1C(=O)CN=C(c2ccccc2)c2cc(Cl)ccc21 | -3
O=C1CC2CCCCC2N1 (stereo not shown) [Comparison Compound, 2-azabicyclo[3.4.0]nonane-3-one] | 46
COc1ccc(C(=O)N2C(=O)CC[C@H]3[C@H](O)CC[C@H]32)cc1 (racemic) | 76

Ref: patent EP0790237B1
